The measured values listed here are drawn from patent US20260028418A1.

absorbance reference
Molecular target: T1, HER2-ECD-Fc (human, UniProt P04626 23-652)
T1 construct: extracellular domain; Produced in FreeStyle 293F cells; also called HER2-ECD Fc fusion protein
Assay: ELISA on HER2-ECD-Fc; antibody at 5 × 10^-7 µg/mL
Answer field: number only, no words.

binder="hz8G11 (antibody, V domains shown, Humanized antibody, detected with anti-human IgG-HRP; also called humanized 8G11 antibody) VH: QVQLVQSGQEVKKPGASVKVSCKASGYSFTGYYMHWVRQAPGQGLEWIGHINPNNGGTSYNQKFKGRTTLTVDKSISTAYMELSRLRSDDTAVYYCAREEAFAYWGQGTLVTVSS VL: DIQMTQSPSSLSASVGDRVTISCRASQDISNYLNWYQQKPGKAPKLLIYYTSRLHSGVPSRFSGSGSGTDFSLTISSLQPEDIATYYCQQGITPPWTFGGGTKVEIK" measure=absorbance meas_value=0.12
binder="hz2G10 (antibody, V domains shown, Humanized antibody, detected with anti-human IgG-HRP; Only the variable domains are tied to the name; also called humanized 2G10 antibody) VH: EVQLVESGGGLVQPGGSLRLSCAASGFTFSDYYMYWVRQAPGKGLEWVAYINSGGGSTYYPDTVKGRFTISRDNAKNSLYLQMNSLRAEDTAVYYCAREALYDYDYAMDYWGQGTTVTVSS VL: DIVMTQSPLSLSVTPGQPASISCKSSQSLLYSNGKTYLNWLLQKPGQSPQRLIYLVSKLDSGVPDRFSGSGSGTDFTLKISRVEAEDVGVYYCVQGTHFPLTFGGGTKVEIK" measure=absorbance meas_value=0.12

Please report the measured absorbance for 24D3 (antibody, V domains shown) VH: EVKLVESGGGLVKPGGSLKLSCAASGFTFSSCAMSWVRQTPEKRLEWVATISGGGSYTYYPDSVKGRFTISRDNAKNTLYLQMSSLRSEDTAMYYCARHGGYESWFPYWGQGTLVTVSA VL: DIVMTQSPLSLPVSLGDQASISCRSSQSLVHSNGNTYLHWYLQKPGQSPKLLIYKVSNRFSGVPDRFSGSGSGTDFTLKISRVEAEDLGVYFCSQSTHVPPWTFGGGTKLEIK
0.11
